System: U251 CNS
Assay: NCI-60 one-dose screen, 48 h
Details: 10 µM unless noted
Procedure: Growth inhibition of the U251 human tumor cell line is measured as a screen for anti-cancer activity. Cells are grown in 96 well plates and exposed to the test compound for 48 hours. Compounds are tested at a single concentration, which is 10^-5 M for most compounds. The reported endpoint is percent growth (GI% or GIPRCNT), where numbers from 0 - 100% represent growth inhibition, and numbers from -100% - 0 represent cell death. For example, a value of 40 represents 60% growth inhibition. […]
About 83,000 compounds went through this panel and 20% of them were active in at least one assay; those are over-represented in the sample as a whole. Activity calls are given as the source filed them. The calls were made as follows: active = growth percent below 10; inactive = the rest.
Parameter call: string, one of YES = active, NO = inactive

As a guide, the following entries are already answered.
[[record]]
compound = "O=Nc1ccccc1N=O"
class_assignment = "NO"

[[record]]
compound = "Cn1c2c(c3ccccc31)CCN1C[C@@H]3CCCC[C@H]3C[C@@H]21"
class_assignment = "NO"

[[record]]
compound = "O=C1C2=C(Nc3cc([N+](=O)[O-])ccc3N2)OC1c1c2ccccc2cc2ccccc12 (configuration not stated)"
class_assignment = "NO"

[[record]]
compound = "O=C(/C=C\\c1ccccc1)N1c2ccccc2CC1c1c[nH]c2ccccc12 (configuration not stated)"
class_assignment = "NO"

[[record]]
compound = "Nc1ccc(SSc2ccc(N)cc2)cc1"
class_assignment = "NO"

[[record]]
compound = "CCN(CC)CCOc1ccc(-c2nc3cc(Cl)ccc3s2)cc1"
class_assignment = "YES"

[[record]]
compound = "C/C=C1\\SC(=S)NC1=O"
class_assignment = "NO"

[[record]]
compound = "C1=C(c2ccccc2)C(c2ccc(OCCN3CCCCC3)cc2)Oc2ccccc21 (configuration not stated)"
class_assignment = "NO"


Test call for this compound, please: C[N+](C)=c1ccc2nc3c(cc(NCCCNc4cc5oc6cc(=[N+](C)C)ccc-6nc5c5ccccc45)c4ccccc43)oc-2c1
YES

Test call for this compound, please: CCCCCC(CCCCC)C(=O)O
NO

Test call for this compound, please: O=C1OCc2cccc3cccc1c23
NO

Test call for this compound, please: CC1OC(OC2C(OC3CCC4(C)C(CCC5(C)C4CC=C4C6CC(C)(C)CCC6(CO)C(O)CC45C)C3(C)C)OC(C(=O)O)C(OC3OC(COC4OC(CO)C(O)C(O)C4O)C(O)C(O)C3O)C2O)C(O)C(O)C1O (configuration not stated)
YES

Test call for this compound, please: Cc1ccc2c(ccc3c[n+]4c5ccccc5ccc4n32)c1
YES

Test call for this compound, please: N#CSCc1ccc(Cl)c(CSC#N)c1
NO

Test call for this compound, please: CCOc1ccc(-c2nc3ccc(-c4nc5ccc(N6CCN(C)CC6)cc5[nH]4)cc3[nH]2)cc1
YES

Test call for this compound, please: O=C1N[C@H]2[C@H](CS[C@H]2CCCCC(=O)N(CCP(c2ccccc2)c2ccccc2)CCP(c2ccccc2)c2ccccc2)N1
NO
